B1: ADAMTS4 (parent)
chain: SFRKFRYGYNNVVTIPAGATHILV

Variants of: B1
Experimental Protocol: protein stability index of a GFP-peptide fusion (GPS, HEK-293T) (PSI 1-6); higher = more stable;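 also: lentivirally expressed fusions sorted by FACS into six bins by GFP to DsRed ratio, PSI derived from sequencing read proportions per bin multiplied by bin number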
Condition Notes: c terminus: a fixed tail appended
Each entry below carries its recorded protein stability index.
Enter a number only.

SFRKFRYGYNNVVTIPARATHILV [G18R] : 1.85
SFRKFRYGYNNVVTIPAGATHIPV [L23P] : 2.29
SFRKFRYGCNNVVTIPAGATHILV [Y9C] : 1.55
SFRKFRYGYNNVVDIPAGATHILV [T14D] : 3.24
SFRKFREGYNNVVTIPAGATHILV [Y7E] : 2.63

**Query** Indicate its recorded protein stability index; the variant in question is RFRKFRYGYNNVVTIPAGATHILV [S1R]
**Result** 2.79

**Query** Indicate its recorded protein stability index; the variant in question is SFRMFRYGYNNVVTIPAGATHILV [K4M]
**Result** 2.08

**Query** Indicate its recorded protein stability index; the variant in question is SFRKFRYGYNNVVTIPAGKTHILV [A19K]
**Result** 3

**Query** Indicate its recorded protein stability index; the variant in question is SFRKFTYGYNNVVTIPAGATHILV [R6T]
**Result** 2.37

**Query** Indicate its recorded protein stability index; the variant in question is SFRKFRYGYNNVVTIIAGATHILV [P16I]
**Result** 2.63

**Query** Indicate its recorded protein stability index; the variant in question is SLRKFRYGYNNVVTIPAGATHILV [F2L]
**Result** 1.75

**Query** Indicate its recorded protein stability index; the variant in question is SFRKFRYGVNNVVTIPAGATHILV [Y9V]
**Result** 1.65

**Query** Indicate its recorded protein stability index; the variant in question is SFRKFRYGYNNVVTIPAGAGHILV [T20G]
**Result** 1.49

**Query** Indicate its recorded protein stability index; the variant in question is SYRKFRYGYNNVVTIPAGATHILV [F2Y]
**Result** 1.8
